Give melting point for every item shown.

Worked set:
CC(C)Oc1ccc(C=O)c(Oc2ccc(Cl)cc2Cl)n1    73 to 74 °C
CCC1c2cccn2-c2ccc(F)cc2N1S(=O)(=O)c1ccc(O)c(Cl)c1 (stereo unspecified)    180 to 184 °C
Cc1cc(Oc2cccc(C(F)(F)F)c2)nn1C(=O)Nc1cc(OC2CCCC2)c(Cl)cc1F    81 to 83 °C
CN(C)c1ccc(N=Nc2ccccc2C(=O)NCCNC(=O)OC(C)(C)C)cc1    131 to 134 °C
CC(=O)Nc1cccc2c1C(=O)c1ccccc1C2=O    221 °C
Nc1ccc(C(=O)N2CCN(NC(=O)c3ccc(F)cc3)CC2)cc1    209 °C
O=C(NCc1ccccn1)c1cc(OCC(F)(F)F)ccc1OCC(F)(F)F    100 to 103 °C
CCOC(=O)/C(=N\O[C@H]1CC[C@H](C)CC1)c1csc(N)n1    133 to 135 °C
COC(=O)C1C2CCC(C2)C1N(C)S(=O)(=O)c1ccc(O)cc1 (stereo unspecified)    163 to 164 °C
Oc1ccc(C(c2ccc(O)cc2)c2ccccc2CN2CCCc3ccccc32)cc1    160 to 163 °C

Report melting point for every entry below.
1. COc1ccc2c(c1)c(CC(=O)NO)c(C)n2C(=O)c1ccc(Cl)cc1
2. COC(=O)NC(CCSC)C(N)=O (racemic)
3. CC(=O)C(=Cc1ccc(S(=O)(=O)c2ccccc2)cc1)C(C)=O
4. Cc1[nH]c(C(=O)N2CCC(O)CC2)c(C)c1-c1nc2ccc(C(=O)c3ccccc3)cc2[nH]1
5. O=S(=O)(C#Cc1ccccc1)c1ccccc1
6. CC(C)(C)OC(=O)[C@@](C)(C#N)[C@H](c1ccccc1C(F)(F)F)c1cccc2ccccc12 (racemic)

Given back:
181 to 183 °C
93 to 94 °C
102 to 105 °C
288 to 290 °C
73 °C
159 to 161 °C

###

metric_name: melting point

Worked set:
COCCOc1ccc2c(C3C(=O)Nc4ccccc43)ncnc2c1 (stereo not given)    245 to 248 °C
O=C(O)c1ccc2cc(OCCN3CCN(c4ccc(Cl)cc4)CC3)ccc2c1    197 to 199 °C
O=c1[nH]c2ccccc2n1C1CCN(C[C@@H]2CO[C@@H](c3ccc(F)cc3)C2)CC1 (relative stereo)    154 to 155 °C

Report melting point for every entry below.
1. Cc1ccccc1CC(=NC#N)NC(NC(=O)Cc1ccc2c(c1)OCCO2)C(C)(C)C (stereo not given)
2. N#Cc1ccc2nc(-c3ccc(Br)o3)cn2c1

Given back:
["180 to 181 °C", "212 to 214 °C"]

Report melting point for every entry below.
1. Cc1cccc2c(=O)nc(-c3cccc(C(=O)O)n3)sc12
2. Cn1c(COc2ccc(CC3SC(=O)NC3=O)cc2)nc2ccc(OCCc3ccc(NC(=O)Nc4ccc(C(F)(F)F)cc4)cc3)cc21 (stereo not given)
3. Cn1nc(-c2cnc(N)nc2-c2ccccc2Br)ccc1=O
4. CC(C)(C)C(NC(=O)c1cccc(-c2ccccc2)c1)Nc1c(Nc2cccnc2)c(=O)c1=O (stereo not given)

Given back:
1: 260 to 261 °C; 2: 145 to 147 °C; 3: > 250 °C; 4: 240 to 241 °C

###

metric_name: melting point

Worked set:
COc1cccc2nc3c(c(N)c12)CCCC3    187 to 188 °C
COC(=O)C1=C(C)Nc2ncnn2C1c1cccs1 (stereo not drawn)    239 to 240 °C

Proceed to the following item.
Asked: Any idea what its melting point is? The compound is CC1(C)OC(=S)Nc2ccc(-c3cccc(Cl)c3)cc21
Given back: 183 to 184 °C

###

metric_name: melting point

Worked set:
O=C1c2ccccc2C(O)(c2ccc(F)cc2)C2=NCCCN12 (configuration not stated)    126 to 128 °C
O=C(O)Cn1c(-c2cccc(Cl)c2)nc2cccnc21    214 to 216 °C
CC1(C)[C@@H](C=C(Cl)c2ccc(Cl)cc2)[C@@H]1C(=O)O (relative stereo)    103 to 106 °C

Report melting point for every entry below.
1. COc1ccccc1Oc1c(Cl)nc(N)nc1Cl
2. COC(=O)c1cc(C=O)cnc1C1=NC(C)(C(C)C)C(=O)N1 (configuration not stated)

Given back:
1. 190 °C
2. 113 to 117 °C

Report melting point for every entry below.
1. CCOC(=O)c1cc(NC(=O)C(N)Cc2ccc(Cl)c(Cl)c2)c[nH]1 (configuration not stated)
2. Cc1c(C(=O)Nc2ccc(N3CCN(CCCO)CC3)c(C#N)c2)cnn1-c1ccc(Cl)cc1

Given back:
134 to 136 °C
213 °C

###

metric_name: melting point

C#CCOCc1nnc(Cl)c2ccccc12    131 to 132 °C

Report melting point for every entry below.
1. CCCCC[C@H]1CO[C@H](c2ccc(C(=O)O)cc2)OC1
2. CC(C)CCCC(C)C1CCC2C3CC=C4CC(O)CC(O)C4(C)C3CCC12C (stereo not drawn)
3. CCCc1ccccc1OCCCOc1ccc2c(=O)cc(C(N)=O)oc2c1
4. COc1c(F)c(F)cc2c(=O)c(C(=O)O)cn(C3CC3)c12
5. CCOP(=O)(Cc1nnc2c(=O)[nH]c3cc(C(F)(F)F)c([N+](=O)[O-])cc3n12)OCC

Given back:
1: 210 to 211 °C; 2: 158 to 161 °C; 3: 210 to 213 °C; 4: 185 to 186 °C; 5: 222 to 228 °C

Report melting point for every entry below.
1. O=c1[nH]sc2nc(N3CCCCC3)ncc12
2. O=C1C(=Cc2ccc([N+](=O)[O-])cc2)CCc2cc(OCCn3ccnc3)ccc21

Given back:
268 to 269 °C
184 to 185 °C

###

Give melting point for every item shown.

C=CCN1CCC2(c3cccc(O)c3)CCCC2C1 (stereo not drawn)    106 to 108 °C
CC(=O)[C@H]1C[C@@H](C(N)=S)N(C(=O)OCc2ccc([N+](=O)[O-])cc2)C1    168 to 170 °C
N#Cc1ccc(S(=O)(=O)Nc2cccc3c(C#N)c[nH]c23)cc1    250 to 252 °C
CCN(c1ccc(C(=O)c2ccccc2)cc1[N+](=O)[O-])C1CCCCC1    91.5 to 92 °C
O=C(O)CCC(=O)N1C2CCC(C2)C1C(=O)O (stereo not drawn)    132 to 135 °C
CCOC(=O)COc1cc2c(c(Cl)c1Cl)C(=O)C(c1ccc(F)cc1)C2 (stereo not drawn)    143 to 144 °C

Report melting point for every entry below.
1. CC(C)(C)[Si](C)(C)Oc1ccccc1-c1cc(-c2ccc([N+](=O)[O-])cc2)c(C#N)c(NC(=O)c2cccs2)n1
2. COC(=O)c1c(-c2ccccc2)[nH]c(-c2ccncc2)c1C
3. COC(=O)C=C(Br)SC#N
4. COc1c(Cl)ccc(-c2cc(N)c(Cl)c(C(=O)NO)n2)c1F
5. CC(C)(CSc1ccc(Cl)cc1)C(=O)C(Oc1ccc(Cl)cc1)n1cncn1 (stereo not drawn)
6. OCCCc1cnoc1-c1ccc(Br)cc1

Given back:
["168 to 169 °C", "202 to 204 °C", "139 to 142 °C", "166 to 169 °C", "115 °C", "72 to 73 °C"]

Report melting point for every entry below.
1. CC(=O)Nc1ccc(Sc2ccc(Br)cc2)cc1
2. O=C(Oc1ccccc1)N1CCC(Sc2ccccc2F)CC1
3. COc1ccccc1C(=O)COc1cccc(NC(=O)c2ccccn2)c1
4. CN1CCN(c2nc(-c3ccccc3Cl)c3cc([N+](=O)[O-])ccc3n2)CC1

Given back:
["153 to 155 °C", "58 to 60 °C", "136 to 137 °C", "204 °C"]

Report melting point for every entry below.
1. CCC(C)(C)NC(=S)Nc1cc(Cl)cc(Cl)c1
2. OC(CCl)COc1ccc(-c2nc(C(F)(F)F)c[nH]2)cc1 (stereo not drawn)

Given back:
["134 to 136 °C", "181 to 183 °C"]

###

Give melting point for every item shown.

Report melting point for every entry below.
1. CN1CCC2(CC1)c1ccccc1C(C)(O)c1c(O)cccc12 (centres undefined)
2. O=C1C(CBr)=C(CBr)C(=O)C(CBr)=C1CBr
3. CCc1cn(N=Cc2ccccc2)c(N)n1
4. CN1CCC(O)(Cc2ccccc2F)CC1
5. CCC(=O)c1nc(C(C)(C)C)c(O)c(C(C)(C)C)n1
6. CCCc1c(C(=O)N(C)Cc2ccc3c(Br)c(OCc4nnn[nH]4)ccc3c2)cnn1-c1ccccc1
7. Cc1nc2c3c(c(C(N)=O)cc2n1C)CCC1(Cc2ccccc2C1)N3
8. Cc1c(Cl)[nH]c(=O)n(Cc2ccccc2)c1=O

Given back:
151 to 154 °C
169 to 172 °C
164 to 167 °C
93 to 95 °C
123 to 125 °C
75 to 85 °C
272 to 273 °C
202 to 205 °C

Asked: Any idea what its melting point is? The molecule is O=C1c2cccc3cccc(c23)C(=O)N1CCCCO
Given back: 105 to 108 °C
